Where do these numbers come from? They come from patent US20150031733A1.

molecules and their reported pest or weed control at 3.5 ppm
# Tested on: common house mosquito (Culex pipiens pallens)
# PROTOCOL_NOTES: Common house mosquito larva mortality test in treated water
# Format: in vivo
# STUDY_CONDITIONS: 192 h, active ingredient concentration 3.5 ppm in water, last instar larva, after 8 day, read-out: mortality of insects
ASSAY_READOUT: pest or weed control at 3.5 ppm (%)

line_notation=Cc1cccc(-n2nnn(C)c2=O)c1COc1nc(-c2ccc(C(C)(C)C)cc2)cs1 recorded_value=100
line_notation=CCCCCCCc1ccccc1-c1csc(OCc2c(C)cccc2-n2nnn(C)c2=O)n1 recorded_value=100
line_notation=CCCCCCCc1cccc(-c2csc(OCc3c(C)cccc3-n3nnn(C)c3=O)n2)c1 recorded_value=100
